Source of measurements: ChEMBL document CHEMBL1135372

molecular target: Delta-type opioid receptor (Homo sapiens, UniProt P41143); assay: Binding affinity towards delta opioid receptor by the displacement of [125I]deltorphin
Sequence (P41143 whole entry): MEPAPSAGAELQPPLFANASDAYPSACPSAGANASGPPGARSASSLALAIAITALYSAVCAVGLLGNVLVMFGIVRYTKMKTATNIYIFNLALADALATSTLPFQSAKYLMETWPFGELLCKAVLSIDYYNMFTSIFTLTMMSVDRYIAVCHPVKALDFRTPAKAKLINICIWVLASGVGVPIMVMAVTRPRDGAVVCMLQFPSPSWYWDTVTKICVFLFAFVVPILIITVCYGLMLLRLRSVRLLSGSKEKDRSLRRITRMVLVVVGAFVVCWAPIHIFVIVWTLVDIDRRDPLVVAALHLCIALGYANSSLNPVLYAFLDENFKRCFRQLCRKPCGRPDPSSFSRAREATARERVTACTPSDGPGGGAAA
Assay readout: IC50

| Compound | Recorded result |
| --- | --- |
| O=c1c(-c2ccc(Cl)cc2)cccn1C(CN1CCCC1)c1ccccc1 (stereo unspecified) | > 10 µM |
| N#Cc1cccc(-c2cccn(C(CN3CCCC3)c3ccccc3)c2=O)c1 (stereo unspecified) | > 10 µM |
| COc1ccc(Cl)cc1-c1cccn(C(CN2CCCC2)c2ccccc2)c1=O (stereo unspecified) | 4.17 µM |
| O=c1c(-c2ccc(F)cc2)cccn1C(CN1CCCC1)c1ccccc1 (stereo unspecified) | > 10 µM |
| O=c1c(-c2cc(F)ccc2F)cccn1C(CN1CCCC1)c1ccccc1 (stereo unspecified) | > 10 µM |

Query compound follows.
*Q* Reported IC50, compound O=c1c(-c2cccc(Cl)c2)cccn1C(CN1CCCC1)c1ccccc1 (stereo unspecified) : ____
*A* > 10 µM
